Listed next: entries and their corresponding 50% crystal dissolution (min), 50 uM.
Molecular target: T1, recombinant human galectin-10, TEV-cleaved (human, UniProt Q05315 1-142)
T1 sequence: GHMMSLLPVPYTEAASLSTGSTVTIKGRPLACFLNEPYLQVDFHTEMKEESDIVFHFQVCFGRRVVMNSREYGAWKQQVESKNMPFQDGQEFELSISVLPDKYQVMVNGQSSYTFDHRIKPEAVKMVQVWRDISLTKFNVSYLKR
Assay: cell-based or functional assay
MEASURE_NAME: 50% crystal dissolution (min), 50 uM

INSERT INTO results (binder, value_reported) VALUES
  ('1D11 mouse IgG1 (antibody, V domains shown, Llama VH and VL on mouse IgG1 heavy chain constant domains (CH1-CH2-CH3) and mouse lambda light chain constant domain; also called 1D011; 1D11 mIgG1) VH: QVQLVESGGGLVQPGGSLRLSCAASGFTFDDYAMSWVRQAPGKGLEWVSGISWNGGSTYYAESMKGRFTISRDNAKNTLYLQMNSLKSEDTAVYYCAKDRNLGYRLGYPYDYWGQGTQVTVSS VL: QSVLTQPPSVSGSPGETVTISCAGTSSDVGYGNYVSWYQQLPGMAPRLLIYEVNKRASGITDRFSGSKSGNTASLTISGLQSEDEGDYYCASYRSSNNAVFGGGTHLTVL', '100 min'),
  ('8H11 mouse IgG1 (antibody, V domains shown, VH and VL cloned in frame with mouse IgG1 constant domains; also called 8H11 mIgG1) VH: ELQLVESGGGLVQPGGSLRLSCAASGFTFSTNYMNWVRQAPGKGLEWVSGITSGGGRTYYADSVKGRFTISRDNAKNTLYLQMNSLKPEDTALYYCARTDHAWLDAWGQGTLVTVSS VL: QAGLTQPPSVSGTLGKTVTISCAGTSSDVGYGNYVSWYQQLPGTAPKLLIYAVSTRASGIPDRFSGSKSGNTASLTISGLLSEDEADYYCASYRSSNNYVFGGGTKLTVL', '68.3 min');
